# testSummary: Gemcitabine plasma pharmacokinetics in Slc28a1+/+ and Slc28a1-/- mice
# conditionNotes: female, mouse, plasma, iv, 50 mg/kg, CL (systemic clearance), Slc28a1-/- mice; single i.v. dFdC 50 mg/kg
Counter-ions that a name gives are not always drawn.
readoutName: clearance

Would you mind telling me what clearance value was observed for Nc1ccn([C@@H]2O[C@H](CO)[C@@H](O)C2(F)F)c(=O)n1 [dFdC, Gemcitabine hydrochloride, reference compound] ?
951 mL/min/kg

---

# testSummary: Gemcitabine plasma pharmacokinetics in Slc28a1+/+ and Slc28a1-/- mice
# conditionNotes: female, mouse, plasma, iv, 50 mg/kg, AUClast, Gemcitabine in plasma, WT mice, iv gemcitabine 50mg/kg, per mouse
Where a name gives a salt, the structure may show the parent alone.
readoutName: AUC(0-t) (ng·h/mL)
Output spec: scalar in ng·h/mL, unitless text.

Which measured AUC(0-t) value corresponds to Nc1ccn([C@@H]2O[C@H](CO)[C@@H](O)C2(F)F)c(=O)n1 [dFdC, Gemcitabine hydrochloride, reference compound] ?
1010

---

# testSummary: Gemcitabine urine pharmacokinetics (renal excretion) in Slc28a1+/+ and Slc28a1-/- mice
# conditionNotes: mouse, urine, intravenous, 50 mg/kg, Cp (Gemcitabine), Figure 5 G, H, I; WT mice, 240 Minutes, individual mice
Where a name gives a salt, the structure may show the parent alone.
readoutName: concentration at 240 min (µg/mL)
API: value field is a number in µg/mL; no unit string.

Quick one: concentration at 240 min for Nc1ccn([C@@H]2O[C@H](CO)[C@@H](O)C2(F)F)c(=O)n1 [dFdC, Gemcitabine hydrochloride, reference compound] ?
400

---

# testSummary: Gemcitabine urine pharmacokinetics (renal excretion) in Slc28a1+/+ and Slc28a1-/- mice
# conditionNotes: mouse, urine, intravenous, 50 mg/kg, Cp (dFdU), Figure 5 G, H, I; WT mice, 60 Minutes, individual mice
readoutName: concentration at 60 min (ng/mL)
Write the answer as a number in ng/mL, unit excluded.

Entry "O=c1ccn([C@@H]2O[C@H](CO)[C@@H](O)C2(F)F)c(=O)[nH]1" : reported concentration at 60 min = ?
329

---

# testSummary: Gemcitabine plasma pharmacokinetics in Slc28a1+/+ and Slc28a1-/- mice
# conditionNotes: female, mouse, plasma, iv, 50 mg/kg, Cmax, Slc28a1-/- mice; single i.v. dFdC 50 mg/kg
Where a name gives a salt, the structure may show the parent alone.
readoutName: Cmax (ng/mL)
// return numeric value only (unit: ng/mL, not printed)

O=c1ccn([C@@H]2O[C@H](CO)[C@@H](O)C2(F)F)c(=O)[nH]1
386

# next compound below
Entry Nc1ccn([C@@H]2O[C@H](CO)[C@@H](O)C2(F)F)c(=O)n1 [dFdC, Gemcitabine hydrochloride, reference compound] has what Cmax?
3120

---

# testSummary: Gemcitabine plasma pharmacokinetics in Slc28a1+/+ and Slc28a1-/- mice
# conditionNotes: female, mouse, plasma, intravenous, 50 mg/kg, Cp (Gemcitabine), KO mice, single iv gemcitabine 50mg/kg, 10 min
Counter-ions that a name gives are not always drawn.
readoutName: concentration at 10 min (ng/mL)
Please respond with the number in ng/mL and leave the unit unwritten.

Quick check: concentration at 10 min of Nc1ccn([C@@H]2O[C@H](CO)[C@@H](O)C2(F)F)c(=O)n1 [dFdC, Gemcitabine hydrochloride, reference compound] ?
1940

---

# testSummary: Gemcitabine urine pharmacokinetics (renal excretion) in Slc28a1+/+ and Slc28a1-/- mice
# conditionNotes: mouse, urine, intravenous, 50 mg/kg, Cp (Gemcitabine), Figure 5 G, H, I; KO mice, 60 Minutes, individual mice
Counter-ions that a name gives are not always drawn.
readoutName: concentration at 60 min (µg/mL)
Quick reminder: number only, in µg/mL, skip the unit.

Quick check: concentration at 60 min of Nc1ccn([C@@H]2O[C@H](CO)[C@@H](O)C2(F)F)c(=O)n1 [dFdC, Gemcitabine hydrochloride, reference compound] ?
801

---

# testSummary: Gemcitabine urine pharmacokinetics (renal excretion) in Slc28a1+/+ and Slc28a1-/- mice
# conditionNotes: mouse, urine, intravenous, 50 mg/kg, Cp (dFdU), Figure 5 G, H, I; KO mice, 15 Minutes, individual mice
readoutName: concentration at 15 min

# query: concentration at 15 min of entry "O=c1ccn([C@@H]2O[C@H](CO)[C@@H](O)C2(F)F)c(=O)[nH]1"
344 ng/mL

---

# testSummary: Gemcitabine urine pharmacokinetics (renal excretion) in Slc28a1+/+ and Slc28a1-/- mice
# conditionNotes: mouse, urine, intravenous, 50 mg/kg, Cp (dFdU), Figure 5 G, H, I; KO mice, 60 Minutes, individual mice
readoutName: concentration at 60 min (ng/mL)
The reply should be a number in ng/mL, with the unit left off.

Looking for the measured concentration at 60 min of O=c1ccn([C@@H]2O[C@H](CO)[C@@H](O)C2(F)F)c(=O)[nH]1 [dFdU, 2′,2′-difluorodeoxyuridine] , can you help?
350

---

# testSummary: Gemcitabine plasma pharmacokinetics in Slc28a1+/+ and Slc28a1-/- mice
# conditionNotes: female, mouse, plasma, intravenous, 50 mg/kg, Cp (Gemcitabine), KO mice, single iv gemcitabine 50mg/kg, 60 min
Counter-ions that a name gives are not always drawn.
readoutName: concentration at 60 min (ng/mL)
Write down the numeric answer in ng/mL and omit the unit.

Look up concentration at 60 min: Nc1ccn([C@@H]2O[C@H](CO)[C@@H](O)C2(F)F)c(=O)n1 [dFdC, Gemcitabine hydrochloride, reference compound]
28.8

---

# testSummary: Gemcitabine plasma pharmacokinetics in Slc28a1+/+ and Slc28a1-/- mice
# conditionNotes: female, mouse, plasma, iv, 50 mg/kg, AUCall, Gemcitabine in plasma, WT mice, iv gemcitabine 50mg/kg, per mouse
Counter-ions that a name gives are not always drawn.
readoutName: AUC (ng·h/mL)
Please give a number only; it is taken to be in ng·h/mL.

Query (molecule): Nc1ccn([C@@H]2O[C@H](CO)[C@@H](O)C2(F)F)c(=O)n1 [dFdC, Gemcitabine hydrochloride, reference compound] ; field requested: AUC
1010

---

# testSummary: Gemcitabine urine pharmacokinetics (renal excretion) in Slc28a1+/+ and Slc28a1-/- mice
# conditionNotes: mouse, urine, intravenous, 50 mg/kg, Cp (dFdU), Figure 5 G, H, I; WT mice, 10 Minutes, individual mice
readoutName: concentration at 10 min (ng/mL)
Kindly provide the numeric value in ng/mL only, without the unit symbol.

Entry "O=c1ccn([C@@H]2O[C@H](CO)[C@@H](O)C2(F)F)c(=O)[nH]1" : reported concentration at 10 min = ?
330

# credit: paper PMC10235067
